- Test system: Leishmania (Leishmania) infantum promastigotes
- test name: Inhibition of promastigote growth (MTT colorimetric method)
- Format: cell-based
- condition parameters: Leishmania, 72 h, promastigotes, MTT
recorded endpoint: IC50

Known results for compounds:
{"compound": "CCCCCCCCCCNC(=O)/C=C/c1ccccc1 [Compound 22]", "experimental target": "Leishmania (Leishmania) infantum promastigotes", "IC50": "> 400 µg/mL"}
{"compound": "COC(=O)C=Cc1ccccc1 [Compound 2, Methyl cinnamate]", "experimental target": "Leishmania (Leishmania) infantum promastigotes", "IC50": "> 400 µg/mL"}
{"compound": "O=C(/C=C/c1ccccc1)N(Cc1ccccc1)Cc1ccccc1 [Compound 35]", "experimental target": "Leishmania (Leishmania) infantum promastigotes", "IC50": "> 400 µg/mL"}
{"compound": "CCCCOC(=O)/C=C/c1ccccc1 [Compound 6]", "experimental target": "Leishmania (Leishmania) infantum promastigotes", "IC50": "36.3 µg/mL"}
{"compound": "CCCCNC(=O)/C=C/c1ccccc1 [Compound 19]", "experimental target": "Leishmania (Leishmania) infantum promastigotes", "IC50": "> 400 µg/mL"}

Now consider the entry below.
[Q] What value of measured IC50 is listed for O=C(/C=C/c1ccccc1)OCc1ccc(Cl)cc1 [Compound 14] ?
[A] 68.7 µg/mL

All values here come from paper PMC10053546.
